Biological target: T1, rhB7-H2-Fc (fusion protein of the extracellular part of human B7-H2 (ICOSL) and mouse Fc gamma 1, R&D Systems … (human; mouse, UniProt O75144 19-256; P01868 98-324 = IgG part, limits assumed)
T1 construct: extracellular domain;domain: Fc; bought; also called B7-H2 ectodomain
T1 sequence (O75144 other isoform, or with tags, fused parts or gaps limits assumed): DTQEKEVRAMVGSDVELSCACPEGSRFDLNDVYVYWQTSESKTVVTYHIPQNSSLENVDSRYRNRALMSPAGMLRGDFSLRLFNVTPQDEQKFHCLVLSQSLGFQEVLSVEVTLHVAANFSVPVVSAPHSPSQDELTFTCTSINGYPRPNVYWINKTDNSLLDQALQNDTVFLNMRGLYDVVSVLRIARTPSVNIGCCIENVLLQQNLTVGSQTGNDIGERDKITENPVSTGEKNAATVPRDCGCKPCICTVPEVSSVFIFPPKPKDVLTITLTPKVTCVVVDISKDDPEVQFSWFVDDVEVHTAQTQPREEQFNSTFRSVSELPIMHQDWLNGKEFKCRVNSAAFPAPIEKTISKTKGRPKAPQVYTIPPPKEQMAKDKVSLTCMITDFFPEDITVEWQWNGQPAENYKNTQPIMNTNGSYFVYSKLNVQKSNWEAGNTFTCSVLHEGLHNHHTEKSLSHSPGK
Assay: competition ELISA, coated B7-H2; blocked ligand ICOS-biotin
Reported values of IC50 (read off the curve) for individual entries

| binder | IC50 (read off the curve) |
| --- | --- |
| 95F8 (VHH, Nanobody against B7-H2 (ICOSL)) VHH: EVQLVESGGGLVQAGGSLRLSCAASGIAFSIDIMDWYRQAPGKERELVATISGGGSTNYADSVKGRFIVSRDNAKNILYLQMNSLKPDDTAVYYCNARRLIYGRTVYWGQGTQVTVSS | ~8 nM |

As a next step, examine the binder that follows.
State the recorded IC50 (read off the curve) for this entry: 95A6 (VHH, Nanobody against B7-H2 (ICOSL)) VHH: EVQLVESGGGLVQAGGSLRLSCALSGRAVSIAATAMGWYRQAPGKQRELVAARWSGGSIQYLDSVKGRFTISRDNAKNTVYLQMNSLTPEDTAVYYCNTLPWRANYSGQGTQVTVSS
~10 nM
